# credit: patent US20240300991A1

biological target: CSNK1D (Homo sapiens, UniProt P48730); construct: made in house; assay: Kinase inhibition test (DNA-tagged kinase, affinity resin, qPCR readout); assay type: binding; design: key: (−) indicates no effect; (+) indicates weak inhibitory activity; (++) indicates a moderate level of inhibitory activity; (+++) indicates strong inhibitory activity; conditions: 1 μM of compound
Sequence (P48730 whole entry): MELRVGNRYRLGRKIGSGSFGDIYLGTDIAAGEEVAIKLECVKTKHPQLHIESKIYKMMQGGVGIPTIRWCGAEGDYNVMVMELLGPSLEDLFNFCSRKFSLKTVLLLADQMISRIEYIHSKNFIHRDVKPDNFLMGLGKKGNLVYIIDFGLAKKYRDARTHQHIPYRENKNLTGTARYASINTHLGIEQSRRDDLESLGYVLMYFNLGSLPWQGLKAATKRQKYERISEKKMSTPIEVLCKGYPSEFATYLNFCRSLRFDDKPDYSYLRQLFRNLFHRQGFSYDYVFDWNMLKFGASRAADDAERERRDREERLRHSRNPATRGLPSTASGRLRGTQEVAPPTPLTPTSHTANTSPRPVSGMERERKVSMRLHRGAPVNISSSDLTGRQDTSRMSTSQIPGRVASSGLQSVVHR
endpointName: CSNK1D inhibitory activity

C#Cc1cn([C@@H]2S[C@H](COC(=O)c3ccncc3)[C@@H](O)[C@H]2O)c2ncnc(N)c12    ++
C#Cc1cn([C@@H]2S[C@H](COC(=O)c3ccc(Cl)cc3)[C@@H](O)[C@H]2O)c2ncnc(N)c12    ++
C#Cc1cn([C@@H]2S[C@H](CO)[C@@H](O)[C@H]2O)c2ncnc(N)c12    ++

----------
test system: SNU638 (stomach cancer cells); assay: Inhibitory activity against cancer cells (sulforhodamine B staining); assay type: cell-based; conditions: 3 days, SRB staining
pIC50: −log10 of the molar value.
endpointName: pIC50

These recorded examples may help you get a feel for the data.
Nc1ncnc2c1c(-c1ccccc1)cn2[C@@H]1S[C@H](CO)[C@@H](O)[C@H]1O    5.20
[N-]=[N+]=NC[C@H]1S[C@@H](n2cc(C(N)=O)c3c(N)ncnc32)[C@H](O)[C@@H]1O    6.46
N#Cc1cn([C@@H]2S[C@H](CNC(=O)c3ccccc3)[C@@H](O)[C@H]2O)c2ncnc(N)c12    4.63

(a) NC(=O)c1cn([C@@H]2S[C@H](CNC(=O)c3ccccc3)[C@@H](O)[C@H]2O)c2ncnc(N)c12
(b) NC(=O)c1cn([C@@H]2S[C@H](COC(=O)c3ccccc3)[C@@H](O)[C@H]2O)c2ncnc(N)c12
(c) N#Cc1cn([C@@H]2S[C@H](CN)[C@@H](O)[C@H]2O)c2ncnc(N)c12 [Compound 10b]
Exam item: List these items ordered by pIC50, big to small. Record the ranking as a list of labels in the requested order.
Marked response: c, b, a

----------
target: CSNK1D (Homo sapiens); construct: made in house; test: Kinase inhibition test (DNA-tagged kinase, affinity resin, qPCR readout); format: binding; parameters: key: (−) indicates no effect; (+) indicates weak inhibitory activity; (++) indicates a moderate level of inhibitory activity; (+++) indicates strong inhibitory activity; details: 1 μM of compound
endpointName: CSNK1D inhibitory activity

NC(=O)c1cn([C@@H]2S[C@H](COC(=O)c3ccccc3)[C@@H](O)[C@H]2O)c2ncnc(N)c12 [Compound 7h]    +++
C#Cc1cn([C@@H]2S[C@H](COC(=O)c3ccc(OC)cc3)[C@@H](O)[C@H]2O)c2ncnc(N)c12 [Compound 7d]    ++
Nc1ncnc2c1c(-c1ccccc1)cn2[C@@H]1S[C@H](CO)[C@@H](O)[C@H]1O [Compound 2b]    +++
N#Cc1cn([C@@H]2S[C@H](CN=[N+]=[N-])[C@@H](O)[C@H]2O)c2ncnc(N)c12 [Compound 9b]    +++
Nc1ncnc2c1c(C#CC1CC1)cn2[C@@H]1S[C@H](CO)[C@@H](O)[C@H]1O [Compound 4d]    +

Exam item: Give CSNK1D inhibitory activity for CC(C)(C)C#Cc1cn([C@@H]2S[C@H](CO)[C@@H](O)[C@H]2O)c2ncnc(N)c12 [Compound 4c] tested on CSNK1D (Homo sapiens).
Marked response: +

Exam item: Lab note: CSNK1D (Homo sapiens) assay, enter CSNK1D inhibitory activity for [N-]=[N+]=NC[C@H]1S[C@@H](n2cc(C(N)=O)c3c(N)ncnc32)[C@H](O)[C@@H]1O [Compound 9c] here
Marked response: +++

----------
test system: PC-3 (prostate cancer cells); experiment: Inhibitory activity against cancer cells (sulforhodamine B staining); format: cell-based; conditions: 72 h, 3 days, SRB staining
endpointName: IC50 (nM)

Nc1ncnc2c1c(-c1cccs1)cn2[C@@H]1S[C@H](CO)[C@@H](O)[C@H]1O    2480
C#Cc1cn([C@@H]2S[C@H](CO)[C@@H](O)[C@H]2O)c2nc(Cl)nc(N)c12    2450
N#Cc1cn([C@@H]2S[C@H](CO)[C@@H](O)[C@H]2O)c2ncnc(N)c12    2180
Nc1ncnc2c1c(-c1ccco1)cn2[C@@H]1S[C@H](CO)[C@@H](O)[C@H]1O    2460
C#Cc1cn([C@@H]2S[C@H](CN3CCOCC3)[C@@H](O)[C@H]2O)c2ncnc(N)c12 [Compound 12a]    13200
NC(=O)c1cn([C@@H]2S[C@H](CO)[C@@H](O)[C@H]2O)c2ncnc(N)c12    1800

(I) C#Cc1cn([C@@H]2S[C@H](CO)[C@@H](O)[C@H]2O)c2ncnc(N)c12
(II) C#Cc1cn([C@@H]2S[C@H](CNCC)[C@@H](O)[C@H]2O)c2ncnc(N)c12 [Compound 11b]
Exam item: Could you tell me which of I and II has the lower IC50 reading? Lab note: record the label of whichever item you select.
Marked response: I

----------
test system: A549 (lung cancer cells); experiment: Inhibitory activity against cancer cells (sulforhodamine B staining); assay type: cell-based; conditions: 3 days, SRB staining
pIC50: −log10 of the molar value.
endpointName: pIC50

Please review the entries below; each comes with its answer.
C#Cc1cn([C@@H]2S[C@H](CN)[C@@H](O)[C@H]2O)c2ncnc(N)c12 [Compound 10a]    5.80
N#Cc1cn([C@@H]2S[C@H](CNC(N)=O)[C@@H](O)[C@H]2O)c2ncnc(N)c12    5.61
NC(=O)c1cn([C@@H]2S[C@H](CNC(=O)c3ccccc3)[C@@H](O)[C@H]2O)c2ncnc(N)c12    4.35

(I) C#Cc1cn([C@@H]2S[C@H](CNC(=O)c3ccccc3)[C@@H](O)[C@H]2O)c2ncnc(N)c12
(II) Nc1ncnc2c1c(-c1ccco1)cn2[C@@H]1S[C@H](COC(=O)c2ccccc2)[C@@H](O)[C@H]1O
(III) NC[C@H]1S[C@@H](n2cc(C(N)=O)c3c(N)ncnc32)[C@H](O)[C@@H]1O [Compound 10c]
Exam item: Provide the items ranked by increasing pIC50. # answer = labels listed in requested order
Marked response: I, II, III

----------
biological target: CSNK1D (Homo sapiens); construct: made in house; assay: Kinase inhibition test (DNA-tagged kinase, affinity resin, qPCR readout); type: binding; parameters: key: (−) indicates no effect; (+) indicates weak inhibitory activity; (++) indicates a moderate level of inhibitory activity; (+++) indicates strong inhibitory activity; conditions: 1 μM of compound
endpointName: CSNK1D inhibitory activity

Worked set:
C#Cc1cn([C@@H]2S[C@H](CO)[C@@H](O)[C@H]2O)c2nc(Cl)nc(N)c12 [Compound 14]    ++
NC(=O)c1cn([C@@H]2S[C@H](CO)[C@@H](O)[C@H]2O)c2ncnc(N)c12 [Compound 6]    ++
NC(=O)c1cn([C@@H]2SC[C@@H](O)[C@H]2O)c2ncnc(N)c12 [Compound 13g]    +++
NC(=O)NC[C@H]1S[C@@H](n2cc(C(N)=O)c3c(N)ncnc32)[C@H](O)[C@@H]1O [Compound 11aiii]    ++
N#Cc1cn([C@@H]2SC[C@@H](O)[C@H]2O)c2ncnc(N)c12 [Compound 13f]    ++

Exam item: Output reported CSNK1D inhibitory activity of the compound N#Cc1cn([C@@H]2S[C@H](CNC(=O)c3ccccc3)[C@@H](O)[C@H]2O)c2ncnc(N)c12 [Compound 8d] on CSNK1D (Homo sapiens).
Marked response: ++

Exam item: Provide measured CSNK1D inhibitory activity on CSNK1D (Homo sapiens) for Nc1ncnc2c1c(-c1cccs1)cn2[C@@H]1S[C@H](CO)[C@@H](O)[C@H]1O [Compound 1b] please.
Marked response: +++

Exam item: Write CSNK1D inhibitory activity of Nc1ncnc2c1c(-c1ccco1)cn2[C@@H]1S[C@H](CO)[C@@H](O)[C@H]1O [Compound 1a] ; system used: CSNK1D (Homo sapiens)
Marked response: ++

----------
molecular target: DYRK1A (Homo sapiens, UniProt Q13627); construct: made in house; assay: Kinase inhibition test (DNA-tagged kinase, affinity resin, qPCR readout); format: binding; parameters: key: (−) indicates no effect; (+) indicates weak inhibitory activity; (++) indicates a moderate level of inhibitory activity; (+++) indicates strong inhibitory activity; conditions: 1 μM of compound
Source text: […]
endpointName: DYRK1A inhibitory activity

Nc1ncnc2c1c(-c1ccccc1)cn2[C@@H]1S[C@H](CO)[C@@H](O)[C@H]1O [Compound 2b]    ++
C#Cc1cn([C@@H]2S[C@H](CN)[C@@H](O)[C@H]2O)c2ncnc(N)c12 [Compound 10a]    +++
C#Cc1cn([C@@H]2S[C@H](COC(=O)c3ccc(Cl)cc3)[C@@H](O)[C@H]2O)c2ncnc(N)c12 [Compound 7c]    ++
Nc1ncnc2c1c(-c1ccco1)cn2[C@@H]1S[C@H](CO)[C@@H](O)[C@H]1O [Compound 1a]    +++
C#Cc1cn([C@@H]2S[C@H](CO)[C@@H](O)[C@H]2O)c2nc(Cl)nc(N)c12 [Compound 14]    +++
[N-]=[N+]=NC[C@H]1S[C@@H](n2cc(C(N)=O)c3c(N)ncnc32)[C@H](O)[C@@H]1O [Compound 9c]    +++

Query compound follows.
Exam item: Read the entry NC(=O)c1cn([C@@H]2S[C@H](COC(=O)c3ccccc3)[C@@H](O)[C@H]2O)c2ncnc(N)c12 [Compound 7h] and write its reported DYRK1A inhibitory activity.
Marked response: +++
